# Tested on: SW 1573
# test.protocol: relative viability (nuclei count vs DMSO), 5 days (fraction); higher = more cells survive
# test.conditions: first compound 8 µM
parameter: relative viability

# molecule, test.value
rows = [
    ("CCCCCCCCCCCC1=C(O)C(=O)C=C(O)C1=O [Embelin] + O=C(c1cc(Cc2n[nH]c(=O)c3ccccc23)ccc1F)N1CCN(C(=O)C2CC2)CC1 [Olaparib] (partner 8 µM)", 0.47),
    ("CCCCCCCCCCCC1=C(O)C(=O)C=C(O)C1=O [Embelin] + Cc1nc(NC(=O)N2CCC[C@H]2C(N)=O)sc1-c1ccnc(C(C)(C)C(F)(F)F)c1 [Alpelisib] (partner 2 µM)", 0.804),
    ("CCCCCCCCCCCC1=C(O)C(=O)C=C(O)C1=O [Embelin] + COc1cc2c(Oc3ccc(NC(=O)C4(C(=O)Nc5ccc(F)cc5)CC4)cc3F)ccnc2cc1OCCCN1CCOCC1 [Foretinib] (partner 0.25 µM)", 0.948),
    ("CCCCCCCCCCCC1=C(O)C(=O)C=C(O)C1=O [Embelin] + O=C(CCCCCCC(=O)Nc1ccccc1)NO [Vorinostat] (partner 1 µM)", 0.716),
]
